Listed below: pEC50 values for each entry.
target: human mGlu4 (Homo sapiens); construct: expressed in transfected cells; host or cells: CHO (Chinese Hamster Ovary) cells; experiment: mGlu4 PAM potentiation in human mGlu4/Gqi5 cells with ~EC20 glutamate (Hamamatsu FDSS); assay type: cell-based; conditions: ~EC20 concentration of glutamate, read-out: mGlu4 PAM EC50
Sequence (Q14833 33-912): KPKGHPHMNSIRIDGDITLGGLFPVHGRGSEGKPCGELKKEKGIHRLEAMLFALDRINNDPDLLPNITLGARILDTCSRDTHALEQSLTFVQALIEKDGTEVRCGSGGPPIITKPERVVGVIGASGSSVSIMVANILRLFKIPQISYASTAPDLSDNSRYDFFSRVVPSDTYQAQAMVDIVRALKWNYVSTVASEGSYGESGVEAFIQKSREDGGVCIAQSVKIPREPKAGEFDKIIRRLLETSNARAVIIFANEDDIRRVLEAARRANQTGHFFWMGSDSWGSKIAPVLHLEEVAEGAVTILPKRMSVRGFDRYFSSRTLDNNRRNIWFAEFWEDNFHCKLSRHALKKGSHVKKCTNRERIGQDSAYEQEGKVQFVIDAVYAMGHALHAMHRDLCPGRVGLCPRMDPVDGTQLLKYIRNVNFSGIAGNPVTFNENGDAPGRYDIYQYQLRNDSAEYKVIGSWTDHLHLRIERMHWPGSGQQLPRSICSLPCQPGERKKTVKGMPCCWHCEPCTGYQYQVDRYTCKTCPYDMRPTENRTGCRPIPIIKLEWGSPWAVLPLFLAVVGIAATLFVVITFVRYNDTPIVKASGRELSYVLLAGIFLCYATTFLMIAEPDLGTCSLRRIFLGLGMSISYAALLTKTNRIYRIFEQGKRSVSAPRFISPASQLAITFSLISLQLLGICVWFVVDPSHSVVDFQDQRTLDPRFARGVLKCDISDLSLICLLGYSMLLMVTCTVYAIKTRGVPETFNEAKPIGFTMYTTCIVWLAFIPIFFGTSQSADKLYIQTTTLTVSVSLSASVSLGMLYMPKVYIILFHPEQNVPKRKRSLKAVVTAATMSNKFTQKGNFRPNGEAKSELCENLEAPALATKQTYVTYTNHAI
pEC50: −log10 of the molar value.
metric.name: pEC50

[[record]]
compound = "Cc1ccnc(C(=O)Nc2ccc3c(OCC4CCOC4)nn(C)c3c2)c1 (centres unmarked)"
metric_name = "pEC50"
measured = 6.00

[[record]]
compound = "Cc1cc(COc2nn(C)c3cc(Nc4n[nH]c5cccnc45)ccc23)on1"
metric_name = "pEC50"
measured = 6.98

[[record]]
compound = "CC(C)COc1nn(C)c2cc(Nc3n[nH]c4cccnc34)ccc12"
metric_name = "pEC50"
measured = 6.64

[[record]]
compound = "Cn1nc(OCc2cccnc2)c2ccc(Nc3n[nH]c4cccnc34)cc21"
metric_name = "pEC50"
measured = 7.08

[[record]]
compound = "CC(C)Oc1nn(C)c2cc(Nc3n[nH]c4cccnc34)ccc12"
metric_name = "pEC50"
measured = 6.38

